biological target: mouse CCL22 (Mus musculus); assay: Calcium responses induced by mouse CCL22, neutraligand protocol, CCR4+Gqi5+ HEK cells; conditions: 5 nM mouse CCL22 preincubated 1 h with compound; read-out: IC50, inhibition of mouse CCL22-evoked calcium responses
Sequence (O88430 25-92): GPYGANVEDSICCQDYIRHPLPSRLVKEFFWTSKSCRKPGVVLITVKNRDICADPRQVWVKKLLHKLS
Experimental Endpoint: IC50 (µM)
Please respond with the number in µM and leave the unit unwritten.

Tell me IC50 reported for O=C(OCC(O)CO)c1ccccc1O (stereo not shown) [GPN136, 2,3-dihydroxypropyl 2-hydroxybenzoate]
8.1

====

molecular target: CCL22 (Homo sapiens, UniProt O00626); construct: codes for the mature CCL17 or CCL22 with an N-terminal thioredoxin-hexahistidin (TRX- (His)6) tag; thioredoxin (TRX) (N, cleaved yes); (His)6 (N, cleaved yes); made in house; host or cells: E. coli BL21 (DE3); experiment: Tryptophan fluorescence assay on CCL22; format: binding; details: 1.5 μM CCL22, tryptophan fluorescence at 340 nm; estimated; read-out: KD, high-affinity binding site class, on CCL22
Sequence (O00626 25-93): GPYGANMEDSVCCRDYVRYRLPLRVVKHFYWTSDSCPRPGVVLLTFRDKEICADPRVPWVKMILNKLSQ
Experimental Endpoint: Kd

Tell me Kd reported for O=C(OCC(O)CO)c1ccccc1O (stereo not shown) [GPN136, 2,3-dihydroxypropyl 2-hydroxybenzoate]
< 50 nM

====

molecular target: CCL17 (Homo sapiens, UniProt Q92583); construct: codes for the mature CCL17 or CCL22 with an N-terminal thioredoxin-hexahistidin (TRX- (His)6) tag; thioredoxin (TRX) (N, cleaved yes); (His)6 (N, cleaved yes); made in house; host or cells: E. coli BL21 (DE3); assay: TRIC-r calcium assay, neutraligand protocol: compound preincubated with CCL17, EGFP-CCR4+Gqi5+ HEK cells; type: cell-based; conditions: compound 5 µM
Experimental Endpoint: Inhibition of CCL17 calcium responses (%)

1) Cn1c(=O)c2c(ncn2C)n(C)c1=O [Caffeine, reference compound]
no effect
2) Cn1c(=O)c2[nH]cnc2n(C)c1=O [Theophylline, reference compound]
no effect
3) CC(C)Cn1c(=O)n(C)c(=O)c2[nH]cnc21 [IBMX, 3-isobutyl-1-methyl xanthine, reference compound]
no effect
4) O=C(O)c1ccccc1O [GPN0001207]
0.0%

====

target: CCL22 (Homo sapiens, UniProt O00626); construct: codes for the mature CCL17 or CCL22 with an N-terminal thioredoxin-hexahistidin (TRX- (His)6) tag; thioredoxin (TRX) (N, cleaved yes); (His)6 (N, cleaved yes); made in house; host or cells: E. coli BL21 (DE3); experiment: Tryptophan fluorescence assay on CCL22; type: binding; settings: […] CCL22, tryptophan fluorescence at 340 nm; read-out: KD, low-affinity binding site class, on CCL22
Experimental Endpoint: Kd (µM)
Please respond with the number in µM and leave the unit unwritten.

Tell me Kd reported for O=C(OCC(O)CO)c1ccccc1O (stereo not shown) [GPN136, 2,3-dihydroxypropyl 2-hydroxybenzoate]
53

====

Recorded IC50 for the following compounds
biological target: CCL22 (Homo sapiens, UniProt O00626); construct: codes for the mature CCL17 or CCL22 with an N-terminal thioredoxin-hexahistidin (TRX- (His)6) tag; thioredoxin (TRX) (N, cleaved yes); (His)6 (N, cleaved yes); made in house; host or cells: E. coli BL21 (DE3); assay: TRIC-r calcium assay, neutraligand protocol: compound preincubated with CCL22, EGFP-CCR4+Gqi5+ HEK cells; assay type: cell-based; conditions: 5 nM CCL22 preincubated 1 h with compound, 21 °C; read-out: IC50 for CCL22 neutralization (calcium assay)
Please respond with the number in µM and leave the unit unwritten.

# example entries with known answers
1. COc1ccc([C@@H](C)C(=O)c2ccc(O)cc2O)cc1 [GPN025]
10.6
2. CN1C(=O)N(C)C2=NNC=NC2(O)C1=O (stereo not drawn) [GPN355]
0.2

Consider now this further compound.
Tell me IC50 reported for O=C(OCC(O)CO)c1ccccc1O (stereo not drawn) [GPN136, 2,3-dihydroxypropyl 2-hydroxybenzoate]
11.6

====

biological target: CCL22 (Homo sapiens); construct: codes for the mature CCL17 or CCL22 with an N-terminal thioredoxin-hexahistidin (TRX- (His)6) tag; thioredoxin (TRX) (N, cleaved yes); (His)6 (N, cleaved yes); made in house; host or cells: E. coli BL21 (DE3); test: TRIC-r calcium assay, neutraligand protocol: compound preincubated with CCL22, EGFP-CCR4+Gqi5+ HEK cells; format: cell-based; settings: HEK293; compound 5 µM; read-out: Inhibition of CCL22 calcium responses (%)
Experimental Endpoint: inhibition at 5 µM (%)
Please respond with the number in % and leave the unit unwritten.

1. O=C(OCC(O)CO)c1ccccc1O (centres unmarked) [GPN136, 2,3-dihydroxypropyl 2-hydroxybenzoate]
35
2. CC(=O)Oc1ccccc1C(=O)O [aspirin, Acetylsalicylic acid, reference compound]
0
3. CC(C)Cn1c(=O)n(C)c(=O)c2[nH]cnc21 [IBMX, 3-isobutyl-1-methyl xanthine, reference compound]
0
4. Cn1c(=O)c2c(ncn2C)n(C)c1=O [Caffeine, reference compound]
0

Tell me inhibition at 5 µM reported for CC(C)=CCn1cnc2c1c(=O)n(C)c(=O)n2C [GPN279]
0

====

Target: CCL17 (Homo sapiens)
Construct: codes for the mature CCL17 or CCL22 with an N-terminal thioredoxin-hexahistidin (TRX- (His)6) tag; thioredoxin (TRX) (N, cleaved yes); (His)6 (N, cleaved yes); made in house; host or cells: E. coli BL21 (DE3)
Sequence (Q92583 24-94): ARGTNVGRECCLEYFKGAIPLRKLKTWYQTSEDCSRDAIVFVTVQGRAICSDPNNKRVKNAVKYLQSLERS
Assay: TRIC-r calcium assay, neutraligand protocol: compound preincubated with CCL17, EGFP-CCR4+Gqi5+ HEK cells
Type: cell-based
Details: HEK293; compound 5 µM; read-out: Inhibition of CCL17 calcium responses (%)
Experimental Endpoint: inhibition at 5 µM (%)
Please respond with the number in % and leave the unit unwritten.

# example entries with known answers
1) CC(=O)Oc1ccccc1C(=O)O [aspirin, Acetylsalicylic acid, reference compound]
0
2) Cn1c(=O)c2c(ncn2C)n(C)c1=O [Caffeine, reference compound]
0
3) O=C(OCC(O)CO)c1ccccc1O (stereo not shown) [GPN136, 2,3-dihydroxypropyl 2-hydroxybenzoate]
0

Consider now this further compound.
Tell me inhibition at 5 µM reported for CC(C)Cn1c(=O)n(C)c(=O)c2[nH]cnc21 [IBMX, 3-isobutyl-1-methyl xanthine, reference compound]
0
